These records show MIC for Kl. pneum. BC 6.
Answer in µg/mL, number only, no unit symbol.

# annotated cases, reported MIC shown
{"compound": "CO[C@@]1(NC(=O)C(NC(=O)Nc2cnc(NCc3ccc(S(N)(=O)=O)s3)nc2O)c2ccccc2)C(=O)N2C(C(=O)O)=C(CSc3nnnn3C)CS[C@@H]21 (stereo partly drawn)", "unit.abbrev": "µg/mL", "MIC": 0.25}
{"compound": "Cn1nnnc1SCC1=C(C(=O)O)N2C(=O)[C@@H](NC(=O)C(NC(=O)Nc3cnc(NCc4ccc(S(N)(=O)=O)s4)nc3O)c3csc(N)n3)[C@H]2SC1 (stereo partly drawn)", "unit.abbrev": "µg/mL", "MIC": 0.03}
{"compound": "CO/N=C(\\C(=O)N[C@@H]1C(=O)N2C(C(=O)O)=C(COC(N)=O)CS[C@H]12)c1ccco1 [Cefuroxim, reference compound]", "unit.abbrev": "µg/mL", "MIC": 4}
{"compound": "Nc1nc(C(NC(=O)Nc2cnc(NCc3ccc(S(N)(=O)=O)s3)nc2O)C(=O)N[C@@H]2C(=O)N3C(C(=O)O)=C(CSc4nnnn4CCO)CS[C@H]23)cs1 (stereo partly drawn)", "unit.abbrev": "µg/mL", "MIC": 0.03}
{"compound": "CO[C@@]1(NC(=O)C(NC(=O)Nc2cnc(NCc3ccco3)nc2O)c2ccccc2)C(=O)N2C(C(=O)O)=C(CSc3nnnn3C)CS[C@@H]21 (stereo partly drawn)", "unit.abbrev": "µg/mL", "MIC": 0.25}

Moving on to another compound below.
Lab note: need MIC for Cn1nnnc1SCC1=C(C(=O)O)N2C(=O)[C@@H](NC(=O)C(NC(=O)Nc3cnc(NCc4ccco4)nc3O)c3csc(N)n3)[C@H]2SC1 (stereo partly drawn) on Kl. pneum. BC 6, anyone have it? 0.03

====

Each entry below lists one item and its recorded MIC value.
test system: Kl. pneum. ATCC 10031
Number in µg/mL, nothing else.

{"compound": "Nc1nc(C(NC(=O)Nc2cnc(NCc3ccc(S(N)(=O)=O)s3)nc2O)C(=O)N[C@@H]2C(=O)N3C(C(=O)O)=C(CSc4nnnn4CCO)CS[C@H]23)cs1 (stereo partly drawn)", "assayed.system": "Kl. pneum. ATCC 10031", "measurement.label": "MIC", "unit.abbrev": "µg/mL", "meas.value": 0.06}

Test system Kl. pneum. ATCC 10031; read-out MIC; what value for Cn1nnnc1SCC1=C(C(=O)O)N2C(=O)[C@@H](NC(=O)C(NC(=O)Nc3cnc(NCc4ccco4)nc3O)c3csc(N)n3)[C@H]2SC1 (stereo partly drawn) ? 0.06

What reported MIC corresponds to Cn1nnnc1SCC1=C(C(=O)O)N2C(=O)[C@@H](NC(=O)C(NC(=O)Nc3cnc(NCc4ccc(S(N)(=O)=O)s4)nc3O)c3csc(N)n3)[C@H]2SC1 (stereo partly drawn) on Kl. pneum. ATCC 10031? 0.03

Give the reported MIC for CO[C@@]1(NC(=O)C(NC(=O)Nc2cnc(NCc3ccco3)nc2O)c2ccccc2)C(=O)N2C(C(=O)O)=C(CSc3nnnn3C)CS[C@@H]21 (stereo partly drawn) (system: Kl. pneum. ATCC 10031). 0.25

Param readout = MIC; param system = Kl. pneum. ATCC 10031; param query = CO[C@@]1(NC(=O)C(NC(=O)Nc2cnc(NCc3ccc(S(N)(=O)=O)s3)nc2O)c2ccccc2)C(=O)N2C(C(=O)O)=C(CSc3nnnn3C)CS[C@@H]21 (stereo partly drawn) ; response: value 0.25

# returns recorded MIC (system: Kl. pneum. ATCC 10031) for CO/N=C(\C(=O)N[C@@H]1C(=O)N2C(C(=O)O)=C(COC(N)=O)CS[C@H]12)c1ccco1 [Cefuroxim, reference compound] 2
